src = patent US20220348651A1

pEC50 values by entry
Target: T1, cyno ENTPD2 expressed on NIH/3T3 cells (cynomolgus macaque, UniProt Q9Y5L3 1-495 (human entry))
T1 construct: also called NIH3T3 cynoENTPD2; Cyno ENTPD2 NIH/3T3
T1 chain: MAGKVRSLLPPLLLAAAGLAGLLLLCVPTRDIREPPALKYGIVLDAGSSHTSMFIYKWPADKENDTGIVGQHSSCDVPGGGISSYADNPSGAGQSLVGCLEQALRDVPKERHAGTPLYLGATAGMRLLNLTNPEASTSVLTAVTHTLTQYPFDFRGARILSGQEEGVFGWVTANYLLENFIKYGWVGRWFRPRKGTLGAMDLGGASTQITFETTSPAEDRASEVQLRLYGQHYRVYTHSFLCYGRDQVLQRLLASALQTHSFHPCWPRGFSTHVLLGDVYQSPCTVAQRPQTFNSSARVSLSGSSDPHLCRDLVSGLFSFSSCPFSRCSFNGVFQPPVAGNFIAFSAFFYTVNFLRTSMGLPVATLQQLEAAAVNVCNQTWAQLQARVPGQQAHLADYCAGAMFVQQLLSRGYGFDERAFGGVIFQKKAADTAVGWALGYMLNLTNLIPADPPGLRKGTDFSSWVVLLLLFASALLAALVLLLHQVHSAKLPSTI
Assay: flow cytometry, NIH3T3 cyno ENTPD2 cells
Units for pEC50: none; it is -log10 of a concentration expressed in mol/L.

binder="ANTI-HUMAN ENTPD2 MAB10 (antibody, human IgG1, lambda, V domains shown, also called Anti-ENTPD2 mAb10) VH: QVQLVQSGAEVKKPGSSVKVSCKASGGTFDSYAVSWVRQAPGQGLEWMGRIVPWLGFTRYAQKFQGRVTITADESTSTAYMELSSLRSEDTAVYYCARESPGYRYSFDVWDQGTLVTVSS VL: SYELTQPLSVSVALGQTARITCSGDAIGEKYVYWYQQKPGQAPVLVIYDDNNRPSGIPERFSGSNSGNTATLTISRAQAGDEADYYCASYDLQQARWVFGGGTKLTVLG" quantity_kind=pEC50 readout_number=8.77

Given the binder ANTI-HUMAN ENTPD2 MAB9 (antibody, human IgG1, lambda, V domains shown, also called Anti-ENTPD2 mAb9) VH: QVQLVQSGAEVKKPGSSVKVSCKASGGTFDSYAVSWVRQAPGQGLEWMGRIVPWLGHTQYAQKFQGRVTITADESTSTAYMELSSLRSEDTAVYYCARESPGYRYSFDVWDQGTLVTVSS VL: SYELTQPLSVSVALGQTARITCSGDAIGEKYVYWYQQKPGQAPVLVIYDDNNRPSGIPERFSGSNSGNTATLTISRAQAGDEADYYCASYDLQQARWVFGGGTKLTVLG , what is its reported pEC50? 8.89

Given the binder ANTI-HUMAN ENTPD2 MAB4 (antibody, human IgG1, kappa, V domains shown, humanized and optimized from mAb16; human IgG1, kappa; also called Anti-ENTPD2 mAb4) VH: QIQLQESGPGLVKPSQTLSLTCTVSGYSITSGYYWNWIRQHPGKGLEWIGYISYDADNNYNPSLKNRVTISRDTSKNQFSLKLSSVTAADTAVYYCAGGYYRYGLGSYRGSYYYVMDYWGQGTTVTVSS VL: ETVLTQSPATLSVSPGERATISCKASQSVDYEGHSYMNWYQQKPGQAPRLLIYAASNLESGIPARFSGSGSGTDFTLTISSVEPEDAATYYCQQSNEDPPTFGGGTKLEIKR , what is its reported pEC50? 8.21

Given the binder ANTI-HUMAN ENTPD2 MAB5 (antibody, human IgG1, kappa, V domains shown, humanized and optimized from mAb16; human IgG1, kappa; also called Anti-ENTPD2 mAb5) VH: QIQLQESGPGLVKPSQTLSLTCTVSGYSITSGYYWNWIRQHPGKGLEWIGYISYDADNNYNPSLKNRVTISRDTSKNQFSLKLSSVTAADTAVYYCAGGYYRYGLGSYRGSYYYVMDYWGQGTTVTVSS VL: ETVLTQSPATLSVSPGERATISCKASQSVDYDGNSYMNWYQQKPGQAPRLLIYAASNLESGIPARFSGSGSGTDFTLTISSVEPEDAATYYCQQSNEDPPTFGGGTKLEIKR , what is its reported pEC50? 8.28
